Recorded values, source patent US20120141376A1.

system: HLA class I (e.g. HLA-A2) expressing adherent 293T cells; experiment: CTL assay on reverse transfected microarray (caspase activation, fluorescent Z-VAD); type: cell-based, human; settings: HLA-matched CD8+ T cells from prostate cancer patients incubated 4 hours on array; red fluorescent signal = positive response
quantity: Patient ID with positive hit

1) No. 3: DATAS fragment; aminoacylase 1; exon extension (nucleic acid, listed as Homo sapiens) DNA: CCAGGCAGCTGGCGAGGGGGTCACCCTAGAGTTTGCTCAGGTATGGACTTGGGACATGTGATGGGAGAGTGTGGGAGCCGGGGGAGACCCAAGTGTGCAACAGTGGAGTGTGTGCTTGGTGTGTCTGCATATGTCTGGGCATTTCTTTATCTGTGACAGACACATTTTATTCCAACAAGCATTCATTGTAGAGGCCACTGTGGGTGCTGGGGAATGCTGTGGGGAGTAAAATTAGGCACAGTTCATGCCCTTGTATGGTGAAACGGGGAGATATAAATCAAACATTTATGTGATATTACTTTTTTCTGAGAGAATCTCACTCCGTCAC ... MSMPB
